Target: T1, human CD20 (human, UniProt P11836 1-297)
T1 construct: On human CD20-transfected MG87 cells, or endogenous on Daudi, RL and Raji cells; also called hCD20
T1 sequence: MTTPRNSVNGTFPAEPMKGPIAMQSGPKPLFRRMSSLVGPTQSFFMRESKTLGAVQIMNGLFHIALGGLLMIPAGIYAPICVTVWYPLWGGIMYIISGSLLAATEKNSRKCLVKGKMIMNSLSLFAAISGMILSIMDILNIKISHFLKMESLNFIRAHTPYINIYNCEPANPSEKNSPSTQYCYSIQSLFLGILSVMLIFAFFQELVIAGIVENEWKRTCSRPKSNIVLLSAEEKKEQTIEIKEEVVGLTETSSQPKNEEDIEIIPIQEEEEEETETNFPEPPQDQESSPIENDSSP
Assay: flow cytometry, hCD20-transfected MG87 cells
Catalogue of Total Mean Fluorescent Intensity readings, one per entry.
Give your answer as a number; write no unit.

Query :: What does the record list as Total Mean Fluorescent Intensity for 2B7-7 (antibody, V domains shown, Fully human IgG, constant region not specified; also called 2B7-7N) VH: EVQLVESGGGLVQPGRSLRLSCAASGFTFRDYTMHWVRQGPGKGLEWVSGISWNSDYIGYADSVKGRFTISRDNAKNSLYLQMNSLRVEDTALYYCAKLSGTYRDYFYGVDVWGQGTTVTVSS VL: EIVLTQSPATLSLSPGERAALSCRASQSVSNYLAWYQQKPGQAPRLLIYDASNRATGIPARFSGSGSGTDFTLTISSLEPEDFAVYYCQQRSNWPLTFGGGTKVEIR ?
Result :: 3480

Query :: Same for 6B9-4 (antibody, V domains shown, Fully human IgG, constant region not specified; also called 6B9-4N) VH: EEQLVESGGDLVQPGRSLRLSCAASGFTFHDYTMHWVRQAPGKGLEWVSGISWNSGSIGYADSVKGRFTISRDNAKNSLYLQMNSLRIEDTALYYCAKDPSYGSGSYYYYYGMDVWGQGTTVTVSS VL: EIVLTQSPATLSLSPGERATLSCRASQSVSSYLVWYQQRPGQAPRLLIYEASNRATGIPARFSGSGSGTDFTLTISSLESEDFAVYYCQQRSNWPLTFGGGTKVEIK
Result :: 2930

Query :: // query: 9H4-12 (antibody, V domains shown, Fully human IgG, constant region not specified; also called 9H4-12N) VH: EVQLVESGGGLVQPGRSLRLSCAASGFTFDDYAMHWVRQVPGKGLEWVSGISWNSGSIGYADSVKGRFTISRDNAKNSLYLQMNSLRAEDTALYYCAKDMGYGNYYHYGMDVWGQGTTVTVSS VL: DIVLTQSPATLSLSPGERATLSCRASQSVSSYLAWYQQKPGQAPRLLICDASHRATRIPARFSGSGSGTDFTLTISSLEPEDFAVYYCQQRSNWPITFGQGTRLEIK
Result :: 2040

The reported numbers originate from patent US20090035322A1.
